molecular target: hSERT S559A (Homo sapiens, UniProt P31645, S559A); construct: forward and reverse primers were used to amplify a full-length hSERT; expressed in transfected cells; host or cells: HeLa cells, transient, pcDNA3.1; assay: APP^+ uptake, hSERT S559A; assay type: cell-based; conditions: S2 site mutant, read-out: SYR IC50 for Transport
Sequence (P31645 whole entry S559A): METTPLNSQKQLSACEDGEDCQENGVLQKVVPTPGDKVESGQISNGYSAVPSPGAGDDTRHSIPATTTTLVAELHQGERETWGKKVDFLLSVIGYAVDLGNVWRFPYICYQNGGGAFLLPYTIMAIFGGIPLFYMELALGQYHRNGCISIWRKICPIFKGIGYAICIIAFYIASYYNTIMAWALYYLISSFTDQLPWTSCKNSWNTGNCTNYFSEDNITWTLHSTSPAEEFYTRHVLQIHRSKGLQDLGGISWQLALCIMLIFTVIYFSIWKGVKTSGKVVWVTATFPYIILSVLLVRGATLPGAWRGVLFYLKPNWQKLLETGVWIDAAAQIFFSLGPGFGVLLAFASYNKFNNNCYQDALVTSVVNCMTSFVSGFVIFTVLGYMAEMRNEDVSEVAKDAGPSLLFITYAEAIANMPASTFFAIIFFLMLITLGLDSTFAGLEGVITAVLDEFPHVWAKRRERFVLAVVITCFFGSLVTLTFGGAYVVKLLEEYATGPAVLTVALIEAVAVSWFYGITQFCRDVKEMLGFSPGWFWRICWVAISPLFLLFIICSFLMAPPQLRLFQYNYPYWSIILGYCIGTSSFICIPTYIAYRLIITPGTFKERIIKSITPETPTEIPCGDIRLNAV
Measured quantity: pIC50
Keep in mind that pIC50 stands for -log10 of concentration in molar terms.

// query Look up pIC50 of COc1cc([C@@H]2OC[C@@H]3[C@H]2CO[C@H]3c2cc(OC)c(O)c(OC)c2)cc(OC)c1O [SYR, (-)-syringaresinol] and report it.
// result 4.71

* * *

molecular target: hSERT G498T (Homo sapiens, UniProt P31645, G498T); construct: forward and reverse primers were used to amplify a full-length hSERT; expressed in transfected cells; host or cells: HeLa cells, transient, pcDNA3.1; assay: ASP^+ binding, hSERT G498T; conditions: S2 site mutant, read-out: SYR IC50 for Binding
Sequence (P31645 whole entry G498T): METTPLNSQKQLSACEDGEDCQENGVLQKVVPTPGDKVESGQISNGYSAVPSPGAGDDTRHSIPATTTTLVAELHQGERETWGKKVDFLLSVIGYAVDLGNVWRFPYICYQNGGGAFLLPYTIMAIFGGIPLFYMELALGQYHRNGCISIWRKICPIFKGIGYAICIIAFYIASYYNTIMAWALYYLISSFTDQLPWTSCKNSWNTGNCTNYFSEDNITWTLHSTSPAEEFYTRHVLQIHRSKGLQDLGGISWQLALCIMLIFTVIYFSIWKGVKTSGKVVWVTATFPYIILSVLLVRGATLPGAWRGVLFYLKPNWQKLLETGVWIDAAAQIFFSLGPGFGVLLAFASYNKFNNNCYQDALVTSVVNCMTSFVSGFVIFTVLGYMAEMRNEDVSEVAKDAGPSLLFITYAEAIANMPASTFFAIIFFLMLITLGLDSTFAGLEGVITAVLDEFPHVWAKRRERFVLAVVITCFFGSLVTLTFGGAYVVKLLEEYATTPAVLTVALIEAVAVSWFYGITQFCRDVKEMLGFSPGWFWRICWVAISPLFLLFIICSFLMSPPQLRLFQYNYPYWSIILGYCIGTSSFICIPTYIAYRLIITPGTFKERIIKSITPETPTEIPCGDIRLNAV
Measured quantity: pIC50
Keep in mind that pIC50 stands for -log10 of concentration in molar terms.

// query Look up pIC50 of COc1cc([C@@H]2OC[C@@H]3[C@H]2CO[C@H]3c2cc(OC)c(O)c(OC)c2)cc(OC)c1O [SYR, (-)-syringaresinol] and report it.
// result 4.04

* * *

target: hSERT E493N (Homo sapiens, UniProt P31645, E493N); construct: forward and reverse primers were used to amplify a full-length hSERT; expressed in transfected cells; host or cells: HeLa cells, transient, pcDNA3.1; experiment: APP^+ uptake, hSERT E493N; assay type: cell-based; conditions: S2 site mutant, read-out: SYR IC50 for Transport
Sequence (P31645 whole entry E493N): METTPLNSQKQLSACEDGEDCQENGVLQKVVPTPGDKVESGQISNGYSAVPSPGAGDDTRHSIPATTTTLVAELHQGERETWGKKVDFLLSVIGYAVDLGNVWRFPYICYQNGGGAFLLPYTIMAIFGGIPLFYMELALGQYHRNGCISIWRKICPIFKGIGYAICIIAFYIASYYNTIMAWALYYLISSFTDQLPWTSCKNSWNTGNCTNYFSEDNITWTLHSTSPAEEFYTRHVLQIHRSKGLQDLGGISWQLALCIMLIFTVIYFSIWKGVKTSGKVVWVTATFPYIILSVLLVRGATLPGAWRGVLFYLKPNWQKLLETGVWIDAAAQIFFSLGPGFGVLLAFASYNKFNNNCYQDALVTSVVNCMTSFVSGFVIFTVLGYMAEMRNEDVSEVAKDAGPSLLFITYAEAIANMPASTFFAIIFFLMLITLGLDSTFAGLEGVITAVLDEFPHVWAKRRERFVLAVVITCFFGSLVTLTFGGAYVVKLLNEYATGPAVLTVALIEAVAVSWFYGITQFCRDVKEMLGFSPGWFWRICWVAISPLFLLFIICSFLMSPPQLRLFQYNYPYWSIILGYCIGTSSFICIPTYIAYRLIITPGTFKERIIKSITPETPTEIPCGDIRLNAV
Measured quantity: IC50

// query Look up IC50 of COc1cc([C@@H]2OC[C@@H]3[C@H]2CO[C@H]3c2cc(OC)c(O)c(OC)c2)cc(OC)c1O [SYR, (-)-syringaresinol] and report it.
// result 9.16 µM

* * *

biological target: hSERT E494Q (Homo sapiens, UniProt P31645, E494Q); construct: forward and reverse primers were used to amplify a full-length hSERT; expressed in transfected cells; host or cells: HeLa cells, transient, pcDNA3.1; assay: APP^+ uptake, hSERT E494Q; assay type: cell-based; conditions: S2 site mutant, read-out: SYR IC50 for Transport
Sequence (P31645 whole entry E494Q): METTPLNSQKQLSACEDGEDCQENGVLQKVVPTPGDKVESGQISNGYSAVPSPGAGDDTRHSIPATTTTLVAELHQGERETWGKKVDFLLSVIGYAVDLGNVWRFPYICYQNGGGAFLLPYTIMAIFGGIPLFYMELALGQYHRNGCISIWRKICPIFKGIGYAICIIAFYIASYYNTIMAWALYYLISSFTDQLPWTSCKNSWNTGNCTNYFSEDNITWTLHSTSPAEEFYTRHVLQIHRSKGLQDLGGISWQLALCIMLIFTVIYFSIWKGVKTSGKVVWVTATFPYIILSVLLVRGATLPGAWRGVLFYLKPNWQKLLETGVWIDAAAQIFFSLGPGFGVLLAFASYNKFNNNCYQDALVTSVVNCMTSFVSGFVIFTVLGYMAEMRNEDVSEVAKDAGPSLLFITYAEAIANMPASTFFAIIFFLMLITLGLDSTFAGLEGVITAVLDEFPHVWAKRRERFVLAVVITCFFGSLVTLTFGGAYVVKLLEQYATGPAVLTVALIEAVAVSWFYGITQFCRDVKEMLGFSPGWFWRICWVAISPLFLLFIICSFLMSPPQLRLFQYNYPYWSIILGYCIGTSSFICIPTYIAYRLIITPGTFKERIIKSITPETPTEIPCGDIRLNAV
Measured quantity: pIC50
Keep in mind that pIC50 stands for -log10 of concentration in molar terms.

// query Look up pIC50 of COc1cc([C@@H]2OC[C@@H]3[C@H]2CO[C@H]3c2cc(OC)c(O)c(OC)c2)cc(OC)c1O [SYR, (-)-syringaresinol] and report it.
// result 4.92

* * *

target: hSERT I327A (Homo sapiens, UniProt P31645, I327A); construct: forward and reverse primers were used to amplify a full-length hSERT; expressed in transfected cells; host or cells: HeLa cells, transient, pcDNA3.1; assay: APP^+ uptake, hSERT I327A; assay type: cell-based; conditions: S2 site mutant, read-out: SYR IC50 for Transport
Sequence (P31645 whole entry I327A): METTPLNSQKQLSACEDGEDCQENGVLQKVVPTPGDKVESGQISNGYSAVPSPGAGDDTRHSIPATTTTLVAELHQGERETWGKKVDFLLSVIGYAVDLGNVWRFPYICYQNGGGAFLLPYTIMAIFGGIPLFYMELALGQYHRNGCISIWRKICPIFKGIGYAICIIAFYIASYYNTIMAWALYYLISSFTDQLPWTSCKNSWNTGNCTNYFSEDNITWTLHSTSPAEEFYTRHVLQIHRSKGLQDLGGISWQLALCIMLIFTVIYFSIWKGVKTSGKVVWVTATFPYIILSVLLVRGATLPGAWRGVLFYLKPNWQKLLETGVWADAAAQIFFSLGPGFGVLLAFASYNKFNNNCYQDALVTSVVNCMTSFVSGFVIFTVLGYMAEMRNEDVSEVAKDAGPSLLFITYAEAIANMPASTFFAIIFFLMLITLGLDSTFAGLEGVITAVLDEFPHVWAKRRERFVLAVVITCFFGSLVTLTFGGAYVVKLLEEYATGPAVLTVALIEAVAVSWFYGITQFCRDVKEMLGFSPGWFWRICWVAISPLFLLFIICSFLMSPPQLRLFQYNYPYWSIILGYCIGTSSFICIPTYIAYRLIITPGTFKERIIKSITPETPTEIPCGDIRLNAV
Measured quantity: pIC50
Keep in mind that pIC50 stands for -log10 of concentration in molar terms.

// query Look up pIC50 of COc1cc([C@@H]2OC[C@@H]3[C@H]2CO[C@H]3c2cc(OC)c(O)c(OC)c2)cc(OC)c1O [SYR, (-)-syringaresinol] and report it.
// result 4.71
